- Test system: Leishmania donovani
- measurement_protocol: Antimicrobial activity against wild-type Leishmania donovani AG83 promastigote assessed as inhibition of parasite growth after 72 hrs by MTS assay
- Type: functional, organism-based
- measurement_context: AG83, 72 h
pIC50: −log10 of the molar value.
Catalogue of molecules with associated pIC50

| entry_smiles | reading_qualifier | pIC50 |
| --- | --- | --- |
| O=c1cc(-c2ccc(OCCOCCOCCOc3ccc(-c4cc(=O)c5c(O)cc(O)cc5o4)cc3)cc2)oc2cc(O)cc(O)c12 | = | 5.25 |
| CC(C)(C)OC(=O)N(CCOCCOc1ccc(-c2cc(=O)c3ccccc3o2)cc1)CCOCCOc1ccc(-c2cc(=O)c3ccccc3o2)cc1 | = | 5.49 |
| O=c1cc(-c2ccc(OCCOCCN(CCOCCOc3ccc(-c4cc(=O)c5ccccc5o4)cc3)Cc3cc(F)c(F)c(F)c3)cc2)oc2ccccc12 | = | 4.48 |
| Cc1ccc2c(=O)cc(-c3ccc(OCCOCCOCCOCCOCCOCCOc4ccc(-c5cc(=O)c6ccc(C)cc6o5)cc4)cc3)oc2c1 | = | 5.17 |
| COc1c(-c2ccc(OCCOCCN(CCOCCOc3ccc(-c4oc5ccccc5c(=O)c4OC)cc3)Cc3ccncc3)cc2)oc2ccccc2c1=O | = | 6.01 |
| O=c1cc(-c2ccc(OCCOCCOc3ccc(-c4cc(=O)c5ccccc5o4)cc3)cc2)oc2ccccc12 | < | 4.62 |
| O=c1cc(-c2ccc(OCCOCCN(CCOCCOc3ccc(-c4cc(=O)c5ccccc5o4)cc3)Cc3ccncc3Br)cc2)oc2ccccc12 | = | 6.19 |
| O=c1cc(-c2ccc(OCCOCCN(CCOCCOc3ccc(-c4cc(=O)c5ccccc5o4)cc3)Cc3ccc([N+](=O)[O-])cc3)cc2)oc2ccccc12 | < | 4.00 |
| O=c1cc(-c2ccc(OCCOCCN(CCOCCOc3ccc(-c4cc(=O)c5ccccc5o4)cc3)Cc3ccncc3)cc2)oc2ccccc12 | = | 6.70 |
| O=c1cc(-c2ccc(OCCOCCOCCOCCOc3ccc(-c4cc(=O)c5c(O)cc(O)cc5o4)cc3)cc2)oc2cc(O)cc(O)c12 | = | 5.66 |
| O=c1cc(-c2ccc(OCCOCCN(CCOCCOc3ccc(-c4cc(=O)c5cc(F)ccc5o4)cc3)Cc3ccncc3)cc2)oc2ccc(F)cc12 | = | 6.51 |
| O=c1cc(-c2ccc(OCCOCCN(CCOCCOc3ccc(-c4cc(=O)c5ccccc5o4)cc3)Cc3ccccc3)cc2)oc2ccccc12 | = | 5.08 |
| O=c1cc(-c2ccc(OCCOCCN(CCO)CCOCCOc3ccc(-c4cc(=O)c5ccccc5o4)cc3)cc2)oc2ccccc12 | = | 5.49 |
| O=c1cc(-c2ccccc2OCCOCCN(CCOCCOc2ccccc2-c2cc(=O)c3ccccc3o2)Cc2ccncc2)oc2ccccc12 | = | 5.64 |
| O=c1cc(-c2ccc(OCCOCCNCCOCCOc3ccc(-c4cc(=O)c5ccccc5o4)cc3)cc2)oc2ccccc12 | = | 5.48 |
